target: Ghrelin/GHRP/GHS Receptor (Rattus norvegicus, UniProt O08725); assay: In vivo GH release in rat (serum GH by RIA after i.v. peptide); settings: Table 3; peptide alone 30 μg i.v.
Sequence (O08725 whole entry): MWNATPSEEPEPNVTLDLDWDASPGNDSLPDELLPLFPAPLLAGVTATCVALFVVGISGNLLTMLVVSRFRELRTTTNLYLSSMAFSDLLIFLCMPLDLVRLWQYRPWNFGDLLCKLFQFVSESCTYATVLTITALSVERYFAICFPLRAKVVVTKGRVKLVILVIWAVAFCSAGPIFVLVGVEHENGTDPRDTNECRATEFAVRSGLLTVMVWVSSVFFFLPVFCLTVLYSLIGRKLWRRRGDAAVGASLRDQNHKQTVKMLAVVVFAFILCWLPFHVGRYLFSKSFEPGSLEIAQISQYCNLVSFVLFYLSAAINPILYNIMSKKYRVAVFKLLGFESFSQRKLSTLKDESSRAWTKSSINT
Where no end group is shown, it is not given here. [ ]: non-standard residue; d: D form. d2Nal = N[C@H](Cc1ccc2ccccc2c1)C(=O)O; dCha = N[C@H](CC1CCCCC1)C(=O)O; Nle = CCCC[C@H](N)C(=O)O
Measured Unstimulated Basal GH Release from rat by item
Report as a plain number; the unit ng/mL is understood.

Look over these answered cases.
{"columns": ["Substance", "Quantity Name", "Endpoint Unit", "Observed Value"],
 "data": [
  ["DβNal-Ala-Trp-DPhe-Leu-NH2 ([d2Nal]AW[dF]L-NH2; N-terminus assumed; SMILES CC(C)C[C@H](NC(=O)[C@@H](Cc1ccccc1)NC(=O)[C@H](Cc1c[nH]c2ccccc12)NC(=O)[C@H](C)NC(=O)[C@H](N)Cc1ccc2ccccc2c1)C(N)=O)", "Unstimulated Basal GH Release from rat", "ng/mL", 347],
  ["His-DTrp-Phe-Trp-DPhe-Lys-NH2 (H[dW]FW[dF]K-NH2; N-terminus assumed; SMILES NCCCC[C@H](NC(=O)[C@@H](Cc1ccccc1)NC(=O)[C@H](Cc1c[nH]c2ccccc12)NC(=O)[C@H](Cc1ccccc1)NC(=O)[C@@H](Cc1c[nH]c2ccccc12)NC(=O)[C@@H](N)Cc1c[nH]cn1)C(N)=O)", "Unstimulated Basal GH Release from rat", "ng/mL", 509],
  ["DcyclohexylAla-Ala-Phe-DTrp-Lys-NH2 ([dCha]AF[dW]K-NH2; N-terminus assumed; SMILES C[C@H](NC(=O)[C@H](N)CC1CCCCC1)C(=O)N[C@@H](Cc1ccccc1)C(=O)N[C@H](Cc1c[nH]c2ccccc12)C(=O)N[C@@H](CCCCN)C(N)=O)", "Unstimulated Basal GH Release from rat", "ng/mL", 346]
]}

Incoming: Please look up its Unstimulated Basal GH Release from rat: DAla-DcyclohexylAla-Ala-Phe-DPhe-Nle-NH2 ([dA][dCha]AF[dF][Nle]-NH2; N-terminus assumed; SMILES CCCC[C@H](NC(=O)[C@@H](Cc1ccccc1)NC(=O)[C@H](Cc1ccccc1)NC(=O)[C@H](C)NC(=O)[C@@H](CC1CCCCC1)NC(=O)[C@@H](C)N)C(N)=O)
Outgoing: 393

---

target: Ghrelin/GHRP/GHS Receptor (Rattus norvegicus); test: In vivo GH release in rat (serum GH by RIA after i.v. peptide); details: Table 3; peptide alone 10 μg i.v.
Where no end group is shown, it is not given here. [ ]: non-standard residue; d: D form. d2Nal = N[C@H](Cc1ccc2ccccc2c1)C(=O)O; dCha = N[C@H](CC1CCCCC1)C(=O)O; Nle = CCCC[C@H](N)C(=O)O
Quantity Name: Unstimulated Basal GH Release from rat (ng/mL)
Lab book: enter the figure in ng/mL, no units written.

Reference set, count: 3
{"columns": ["Substance", "Tgt", "Endpoint Unit", "Unstimulated Basal GH Release from rat"],
 "data": [
  ["His-DTrp-Phe-Trp-DPhe-Lys-NH2 (H[dW]FW[dF]K-NH2; N-terminus assumed; SMILES NCCCC[C@H](NC(=O)[C@@H](Cc1ccccc1)NC(=O)[C@H](Cc1c[nH]c2ccccc12)NC(=O)[C@H](Cc1ccccc1)NC(=O)[C@@H](Cc1c[nH]c2ccccc12)NC(=O)[C@@H](N)Cc1c[nH]cn1)C(N)=O)", "Ghrelin/GHRP/GHS Receptor (Rattus norvegicus)", "ng/mL", 197],
  ["DβNal-Ala-Trp-DPhe-Ala-NH2 ([d2Nal]AW[dF]A-NH2; N-terminus assumed; SMILES C[C@H](NC(=O)[C@@H](Cc1ccccc1)NC(=O)[C@H](Cc1c[nH]c2ccccc12)NC(=O)[C@H](C)NC(=O)[C@H](N)Cc1ccc2ccccc2c1)C(N)=O)", "Ghrelin/GHRP/GHS Receptor (Rattus norvegicus)", "ng/mL", 654],
  ["DcyclohexylAla-Ala-Phe-DTrp-Lys-NH2 ([dCha]AF[dW]K-NH2; N-terminus assumed; SMILES C[C@H](NC(=O)[C@H](N)CC1CCCCC1)C(=O)N[C@@H](Cc1ccccc1)C(=O)N[C@H](Cc1c[nH]c2ccccc12)C(=O)N[C@@H](CCCCN)C(N)=O)", "Ghrelin/GHRP/GHS Receptor (Rattus norvegicus)", "ng/mL", 199]
]}

Read the next record carefully.
Incoming: Given the entry DAla-DcyclohexylAla-Ala-Phe-DPhe-Nle-NH2 ([dA][dCha]AF[dF][Nle]-NH2; N-terminus assumed; SMILES CCCC[C@H](NC(=O)[C@@H](Cc1ccccc1)NC(=O)[C@H](Cc1ccccc1)NC(=O)[C@H](C)NC(=O)[C@@H](CC1CCCCC1)NC(=O)[C@@H](C)N)C(N)=O) , report its measured Unstimulated Basal GH Release from rat.
Outgoing: 250

---

Target: Ghrelin/GHRP/GHS Receptor (Rattus norvegicus, UniProt O08725)
Assay: In vitro GH release from isolated pituitary glands, pituitary incubation method
Format: cell-based
Details: Table 1; peptide antagonist 10 μg/ml + stimulator His-DTrp-Ala-Trp-DPhe-Lys-NH2 10 ng/ml
Procedure: Hormonal activities were obtained from in vitro studies using pituitaries of 20 day old CD-1 strain Sprague Dawley female rats. Two pituitaries were incubated for a total of 4-6 hours. Medium was removed each hour for RIA of GH level and fresh medium was added again. […] Peptide activity was calculated as the change in the hormonal level (delta) between I3+I4 and P2. […] Each value recorded represents the mean of 6. […]
Where no end group is shown, it is not given here. [ ]: non-standard residue; d: D form. The star is where a group is joined. Desaminotyrosyl = O=C(CCc1ccc(O)cc1)*
Quantity Name: Change in stimulated GH release versus preincubation (delta) (ng/mL)
// return numeric value only (unit: ng/mL, not printed)

Sample answers from the record:
{"columns": ["Substance", "Observed Value"],
 "data": [
  ["DeaminoTyr-DTrp-Ser-Trp-DPhe-Lys-NH2 ([Desaminotyrosyl][dW]SW[dF]K-NH2; SMILES NCCCC[C@H](NC(=O)[C@@H](Cc1ccccc1)NC(=O)[C@H](Cc1c[nH]c2ccccc12)NC(=O)[C@H](CO)NC(=O)[C@@H](Cc1c[nH]c2ccccc12)NC(=O)CCc1ccc(O)cc1)C(N)=O)", 3325],
  ["His-DTrp-DLys-Trp-DPhe-Lys-NH2 (H[dW][dK]W[dF]K-NH2; N-terminus assumed; SMILES NCCCC[C@H](NC(=O)[C@@H](Cc1ccccc1)NC(=O)[C@H](Cc1c[nH]c2ccccc12)NC(=O)[C@@H](CCCCN)NC(=O)[C@@H](Cc1c[nH]c2ccccc12)NC(=O)[C@@H](N)Cc1c[nH]cn1)C(N)=O)", -83],
  ["DesaminoTyr-DTrp-Ser-Trp-DPhe-NH2 ([Desaminotyrosyl][dW]SW[dF]-NH2; SMILES NC(=O)[C@@H](Cc1ccccc1)NC(=O)[C@H](Cc1c[nH]c2ccccc12)NC(=O)[C@H](CO)NC(=O)[C@@H](Cc1c[nH]c2ccccc12)NC(=O)CCc1ccc(O)cc1)", 3119]
]}

Incoming: Consider the substance His-DTrp-DTrp-Phe-Met-NH2 (H[dW][dW]FM-NH2; N-terminus assumed; SMILES CSCC[C@H](NC(=O)[C@H](Cc1ccccc1)NC(=O)[C@@H](Cc1c[nH]c2ccccc12)NC(=O)[C@@H](Cc1c[nH]c2ccccc12)NC(=O)[C@@H](N)Cc1c[nH]cn1)C(N)=O) and give its measured Change in stimulated GH release versus preincubation (delta).
Outgoing: 287

---

target: Ghrelin/GHRP/GHS Receptor (Rattus norvegicus, UniProt O08725); assay: In vivo GH release in rat (serum GH by RIA after i.v. peptide); details: Table 3; peptide alone 10 μg i.v.
Where no end group is shown, it is not given here. [ ]: non-standard residue; d: D form. d2Nal = N[C@H](Cc1ccc2ccccc2c1)C(=O)O; dCha = N[C@H](CC1CCCCC1)C(=O)O
Unstimulated Basal GH Release from rat values, listed per item
Write the figure, then the unit, nothing else.

{"columns": ["Substance", "Unstimulated Basal GH Release from rat"],
 "data": [
  ["DAla-DβNal-Ala-Ala-DAla-Lys-NH2 ([dA][d2Nal]AA[dA]K-NH2; N-terminus assumed; SMILES C[C@H](NC(=O)[C@H](C)NC(=O)[C@@H](Cc1ccc2ccccc2c1)NC(=O)[C@@H](C)N)C(=O)N[C@H](C)C(=O)N[C@@H](CCCCN)C(N)=O)", "178 ± 33 ng/mL"],
  ["DAla-DβNal-DAla-DTrp-Phe-Lys-NH2 ([dA][d2Nal][dA][dW]FK-NH2)", "244 ± 107 ng/mL"],
  ["DcyclohexylAla-Ala-Trp-DPhe-NH2 ([dCha]AW[dF]-NH2; N-terminus assumed; SMILES C[C@H](NC(=O)[C@H](N)CC1CCCCC1)C(=O)N[C@@H](Cc1c[nH]c2ccccc12)C(=O)N[C@H](Cc1ccccc1)C(N)=O)", "237 ± 18 ng/mL"]
]}

Incoming: Could you share which Unstimulated Basal GH Release from rat value was measured for DβNal-Ala-Trp-DPhe-Leu-NH2 ([d2Nal]AW[dF]L-NH2; N-terminus assumed; SMILES CC(C)C[C@H](NC(=O)[C@@H](Cc1ccccc1)NC(=O)[C@H](Cc1c[nH]c2ccccc12)NC(=O)[C@H](C)NC(=O)[C@H](N)Cc1ccc2ccccc2c1)C(N)=O) ?
Outgoing: 277 ± 43 ng/mL
